Origin of the recorded values: patent US20250270287A1

Biological target: T1, Activin A (UniProt P08476 311-426)
T1 sequence (looked up): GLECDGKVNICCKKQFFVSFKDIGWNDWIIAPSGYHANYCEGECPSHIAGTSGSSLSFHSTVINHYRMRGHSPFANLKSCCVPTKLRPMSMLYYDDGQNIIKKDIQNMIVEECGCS
Assay: SPR (Biacore 8K), Fc protein captured on anti-human IgG, ligand injected
RESULT TYPE: Kd (nM)
Give bare numbers, in nM.

input: Any idea what Kd was measured for ActRIIB-A7 (SEQ ID NO: 125) chimera-Fc protein (Fc fusion, Tested as chimera-Fc protein; not shown: linker (if any) and Fc domain) GRGEAETRECIYYNANWELERTNQSGLERCEGEQDKRLHCYASWRNSSGTIELVKKGCWLDDFNCYDRQECVATEENPQVYFCCCEGNMCNERFTHLPEAGGPEVTYEPPPTAPT ?
output: 0.0169

input: Proceed to ActRIIB (SEQ ID NO: 31) Fc protein (Fc fusion, also called ActRII-Fc; wild-type extracellular ActRIIB; not shown: linker (if any) and Fc domain) GRGEAETRECIYYNANWELERTNQSGLERCEGEQDKRLHCYASWRNSSGTIELVKKGCWLDDFNCYDRQECVATEENPQVYFCCCEGNFCNERFTHLPEAGGPEVTYEPPPTAPT
output: 0.0106

input: Proceed to ActRIIB-A3 (SEQ ID NO: 122) chimera-Fc protein (Fc fusion, Tested as chimera-Fc protein; not shown: linker (if any) and Fc domain) GRGEAETRECIYYNANWELERTNQSGLERCYGDKDKRLHCYASWRNSSGTIELVKKGCWLDDFNCYDRQECVATEENPQVYFCCCEGNFCNERFTHLPEAGGPEVTYEPPPTAPT
output: 0.0165

Continuing:
input: Any idea what Kd was measured for ActRIIA-A8 (SEQ ID NO: 110) chimera-Fc protein (Fc fusion, Tested as chimera-Fc protein; not shown: linker (if any) and Fc domain) GAILGRSETQECLFFNANWEKDRTNQTGVEPCYGDKDKRRHCFATWKNISGSIEIVKQGCWLDDINCYDRTDCVEKKDSPEVYFCCCEGNMCNEKFSYFPEAGGPEVTYEPPPTAPT ?
output: 0.04
